Molecular target: MDM2 (Homo sapiens)
Construct: made in house
Sequence (Q00987 25-109): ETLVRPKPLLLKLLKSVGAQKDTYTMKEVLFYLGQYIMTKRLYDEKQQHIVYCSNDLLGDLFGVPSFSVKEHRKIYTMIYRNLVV
Assay: Naive Library Presenter Screening (phage, NGS), MDM2
Assay type: binding
Conditions: MDM2 clusters (C82, C85); target concentration 30 nM
Numbered stars: 1 amine (or outer) side, 2 acyl side, 3 side chain; on linkers, the order of the positions; unused ones are H or OH. Bridge positions count the residues as written; N and C are the ends. Ends that are not written are not given here. Phenylene(1,4-NHCOCH2)2 = O=C(C[*:1])Nc1ccc(NC(=O)C[*:2])cc1
Mark Y for reported interaction data at Target Concentration 30 of 8 or greater; mark N for anything smaller.

> print(dat)
                                  seqstring         systemtested  label
1  DPASQDCFSAAWQCLQT (DPASQDCFSAAWQCLQT-NH2; linker 7-14 via Phenylene(1,4-NHCOCH2)2 (inferred))  MDM2 (Homo sapiens)      Y
2  DPAHYECTDAAFECYWF (linker 7-14 via Phenylene(1,4-NHCOCH2)2 (inferred))  MDM2 (Homo sapiens)      N
3  DPAHNLCFDAAWWCHWQ (linker 7-14 via Phenylene(1,4-NHCOCH2)2 (inferred))  MDM2 (Homo sapiens)      N
4  DPAVTECFQAAWRCMVM (linker 7-14 via Phenylene(1,4-NHCOCH2)2 (inferred); not fully specified (C-terminus))  MDM2 (Homo sapiens)      Y
5  DPAYSDCFQAAWTCMIH (linker 7-14 via Phenylene(1,4-NHCOCH2)2 (inferred))  MDM2 (Homo sapiens)      Y
6  DPADIVCQDAAFQCFWW (linker 7-14 via Phenylene(1,4-NHCOCH2)2 (inferred))  MDM2 (Homo sapiens)      N
